- Tested on: OVCAR-5 ovarian
- measurementProtocol: NCI-60 one-dose screen, 48 h (100 = growth as untreated, 0 = no growth, -100 = all killed)
- runConditions: 10 µM unless noted
Compounds without any hit were thinned out: in the full panel of roughly 83,000, 20% have a hit.
Exercise: for every item that follows, state its recorded growth.
Give the number; % is assumed, so skip it.

Ask: Tell us which growth value is on record for Cc1ccc(S(=O)(=O)N(CCC(=O)O)c2ccccc2)cc1
Result: 111

Ask: Tell us which growth value is on record for COC(CCP(=O)(c1ccccc1)c1ccccc1)(C(=O)c1ccccc1)c1ccccc1 (stereo not drawn)
Result: 84.1

Ask: Tell us which growth value is on record for C=CCn1c(SCC(=O)Nc2ccc(C(=O)/C=C/c3ccc(Cl)cc3)cc2)nnc1-c1ccccc1
Result: 95.3

Ask: Tell us which growth value is on record for Cn1cc(-c2nc(-c3c[nH]c4c(Cl)nccc34)cs2)c2ccccc21
Result: 120

Ask: Tell us which growth value is on record for COCCn1cc(-c2nc(-c3cc4cccnc4n3C)cs2)c2cc(OC)ccc21
Result: 37.5

Ask: Tell us which growth value is on record for O=C1CC2C=CCN2C=C1NC(=O)c1ccccc1 (stereo not drawn)
Result: 97.4

Ask: Tell us which growth value is on record for CC1=C2[C@@H](CC1)[C@]1(C)O[C@@](C(C)C)(C[C@H]1OC(=O)CO)[C@H]2OC(=O)CCCc1ccccc1
Result: 100

Ask: Tell us which growth value is on record for CC1(C)CCC[C@]23C(=O)O[C@](O)(C(=O)C4=C[C@@](C)(/C=C/CCCc5ccc6ccc7cccc8ccc5c6c78)CC[C@@]42O)[C@@H]13
Result: -75.7

Ask: Tell us which growth value is on record for CC(=O)Cc1nsc(NC(=O)c2cc(-c3cc(Cl)ccc3Cl)oc2C)n1
Result: 111

Ask: Tell us which growth value is on record for CCOC(=O)c1c(C)n2c(=O)cc(C)c3c(OC(C)=O)c(OC(C)=O)cc1c32
Result: 99.2

Ask: Tell us which growth value is on record for C#Cc1ccc(NC(=O)Cc2ccc(/C=C/C(=O)c3nccn3C)cc2)cc1
Result: 105

Ask: Tell us which growth value is on record for O=C(Nc1ccccc1CNc1nc(Nc2ccc(OCCN3CCCC3)cc2)ncc1Cl)NC1CCCCC1
Result: 114

Ask: Tell us which growth value is on record for C=CCNc1nc(O)c(/C=C2\C=Nc3ncccc32)s1
Result: 5.27

Ask: Tell us which growth value is on record for COc1cc(/C=C/C(=O)c2ccc(-n3cc(CN4CCN(c5cc6c(cc5F)c(=O)c(C(=O)O)cn6C5CC5)CC4)nn3)cc2)cc(OC)c1OC
Result: 92.7

Ask: Tell us which growth value is on record for Clc1ccc(C2=Nn3c(nnc3-c3cc(Cl)cc(Cl)c3Cl)SC2)cc1
Result: 19.3

Ask: Tell us which growth value is on record for COc1ccc(NC(=O)c2sc3nc(C)c(C(=O)c4ccccc4)cc3c2N)cc1
Result: 82.8

Ask: Tell us which growth value is on record for COc1ccc(/C(C)=C(\c2ccc(Cl)cc2)c2ccc(OCCCN(C)C)cc2)cc1
Result: 83.4

Ask: Tell us which growth value is on record for O=C1c2ccccc2C(=O)c2cc(Cn3c[n+](Cc4ccc5ccccc5c4)c4ccccc43)ccc21
Result: 59.3

Ask: Tell us which growth value is on record for O=C1c2c(c3c4cc(F)ccc4oc3c3[nH]c4ccccc4c23)C(=O)N1O
Result: 100

Ask: Tell us which growth value is on record for CCN(CC)CCOc1ccc(/C(=C(\C)Cc2ccc(OC)cc2)c2ccc(O)cc2)cc1
Result: 69.3

Ask: Tell us which growth value is on record for CCOC(=O)/C=C1\S/C(=N\Nc2cc(=O)[nH]c3ccc(OC)cc23)N(c2ccccc2)C1=O
Result: 106

Ask: Tell us which growth value is on record for O=C(O)CCCN1C(=O)CSC1=S
Result: 106

Ask: Tell us which growth value is on record for O=C(CSc1nc(-c2ccccc2)cn1-c1ccc(Cl)cc1)c1ccc([N+](=O)[O-])cc1
Result: 95.4
